Tested on: HCT-15 colon
protocol notes: NCI tumour cell line growth inhibition, 48 h
Entries and their measured TGI follow.
property measured: TGI

compound	property measured	endpoint value
CS(=O)(=O)c1ccc(Nc2nc(N[C@H]3CCCC[C@H]3N)nc3cc[nH]c(=O)c23)cc1	TGI	> 100 µM
OC(NN=C1CCCC1)(C(F)(F)Cl)C(F)(F)Cl	TGI	> 10 µM
COC(=O)Cn1cnc2c(Cl)nc(Nc3ccccc3)nc21	TGI	80.4 µM
Nc1c(S(=O)(=O)O)cc(S(=O)(=O)O)c2ccc(N=Nc3ccc(/C=C/c4ccc(N=Nc5ccc6c(S(=O)(=O)O)cc(S(=O)(=O)O)c(N)c6c5O)cc4S(=O)(=O)O)c(S(=O)(=O)O)c3)c(O)c12	TGI	> 100 µM
CCCCCCSSC(=S)N(CC)CC	TGI	> 100 µM
Cc1c([C@H](C)[C@@H]2NC[C@@H](C)C[C@H]2O)ccc2c1C[C@H]1[C@H]2CC=C2C[C@@H](O)CC[C@@]21C	TGI	57 µM
CCC[CH2][Sn]([CH2]CCC)([S]C#N)[S]C#N	TGI	2.53 µM
CCC(C)CC(C)CC(C)/C=C(\C)C1=C(C)CC(C)(O)O1 (centres undefined)	TGI	> 100 µM
Cc1ncc(COP(=O)(O)O)c(/C=C2\SC(=S)NC2=O)c1O	TGI	> 100 µM
